Cited source for all entries: patent US10479780B2

system-name: human Yes1 enzyme (Homo sapiens, UniProt P07947)
Construct: made in house
Sequence (P07947 whole entry): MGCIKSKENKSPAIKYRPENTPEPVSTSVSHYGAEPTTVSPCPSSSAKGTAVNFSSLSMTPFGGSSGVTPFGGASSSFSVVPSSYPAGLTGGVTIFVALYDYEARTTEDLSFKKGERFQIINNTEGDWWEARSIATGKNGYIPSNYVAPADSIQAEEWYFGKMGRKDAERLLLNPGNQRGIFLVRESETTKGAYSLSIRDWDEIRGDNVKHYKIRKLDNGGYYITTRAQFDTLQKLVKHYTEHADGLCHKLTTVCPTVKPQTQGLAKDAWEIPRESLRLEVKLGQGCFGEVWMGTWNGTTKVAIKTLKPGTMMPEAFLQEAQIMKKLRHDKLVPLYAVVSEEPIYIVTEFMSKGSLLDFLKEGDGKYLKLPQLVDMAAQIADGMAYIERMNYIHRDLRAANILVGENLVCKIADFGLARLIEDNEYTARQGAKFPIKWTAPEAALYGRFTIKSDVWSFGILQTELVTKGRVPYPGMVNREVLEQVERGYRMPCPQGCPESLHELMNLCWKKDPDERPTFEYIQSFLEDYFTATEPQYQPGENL
test-protocol: Yes1 enzyme inhibitory activity (time-resolved fluorometry, biotinylated peptide phosphorylation)
Type: biochemical
particulars: read-out: YES_IC50
measured-metric: pIC50
// scale note: pIC50 = -log10(conc_M); give the bare number

Answered examples (8):
Cc1cc(Oc2ccccc2F)ccc1-n1ncc(C(=O)c2cc3cc(OC4CCN(C(C)C)CC4)c(N4C(=O)NC(C)(C)C4=O)cc3[nH]2)c1N [Example 5-1-193] | 9.49
Cc1cc(Oc2ccccc2F)ncc1-n1ncc(C(=O)c2cc3cc(OC4CCN(C(C)C)CC4)c(Br)cc3[nH]2)c1N [Example 5-1-153] | 9.28
Cc1cc2cc(C(=O)c3cnn(-c4ccc(Oc5ccccc5F)cc4C)c3N)[nH]c2cc1N1C(=O)NC2(CCNC2)C1=O (stereo not shown) [Example 5-1-365] | 8.82
Cc1cc(Oc2ccccc2F)cc(C)c1-n1ncc(C(=O)c2cc3cc(F)c(NS(=O)(=O)CCCF)cc3[nH]2)c1N [Example 5-1-040] | 7.89
Cc1cc(Oc2ccccc2F)cc(F)c1-n1ncc(C(=O)c2cc3cc(OC4CCN(C(C)C)CC4)c(Br)cc3[nH]2)c1N [Example 5-1-154] | 9.17
Cc1cc(Oc2c(F)cccc2F)ncc1-n1ncc(C(=O)c2cc3cc(OC4CCN(C5CCCC5)CC4)c(-c4ccccc4C(F)(F)F)cc3[nH]2)c1N [Example 5-1-387] | 8.51
Cc1cc2cc(C(=O)c3cnn(-c4ccc(Oc5ccccc5F)cc4C)c3N)[nH]c2cc1NS(=O)(=O)C1CCOCC1 [Example 5-1-347] | 9.06
Cc1cc(-n2ncc(C(=O)c3cc4cc(OC5CCN(C(C)C)CC5)c(Cl)cc4[nH]3)c2N)ccc1Oc1ccccc1F [Example 5-1-196] | 8.77

(Q) Would you mind telling me what pIC50 value was observed for Cc1cc(Oc2ccccc2F)ccc1-n1ncc(C(=O)c2cc3cc(N4CCOCC4)c(N4C(=O)C(C)(C)NC4=S)cc3[nH]2)c1N [Example 5-1-120] ?
(A) 9.37

(Q) Would you mind telling me what pIC50 value was observed for Cc1cc(Oc2c(F)cccc2F)ncc1-n1ncc(C(=O)c2cc3cc(OC(F)F)c(-n4c(C)cc(=O)[nH]c4=O)cc3[nH]2)c1N [Example 5-1-072] ?
(A) 8.11

* * *

system-name: human Src enzyme (Homo sapiens)
Construct: purchased Carna Biosciences, Inc. 08-173
Sequence (P12931 whole entry): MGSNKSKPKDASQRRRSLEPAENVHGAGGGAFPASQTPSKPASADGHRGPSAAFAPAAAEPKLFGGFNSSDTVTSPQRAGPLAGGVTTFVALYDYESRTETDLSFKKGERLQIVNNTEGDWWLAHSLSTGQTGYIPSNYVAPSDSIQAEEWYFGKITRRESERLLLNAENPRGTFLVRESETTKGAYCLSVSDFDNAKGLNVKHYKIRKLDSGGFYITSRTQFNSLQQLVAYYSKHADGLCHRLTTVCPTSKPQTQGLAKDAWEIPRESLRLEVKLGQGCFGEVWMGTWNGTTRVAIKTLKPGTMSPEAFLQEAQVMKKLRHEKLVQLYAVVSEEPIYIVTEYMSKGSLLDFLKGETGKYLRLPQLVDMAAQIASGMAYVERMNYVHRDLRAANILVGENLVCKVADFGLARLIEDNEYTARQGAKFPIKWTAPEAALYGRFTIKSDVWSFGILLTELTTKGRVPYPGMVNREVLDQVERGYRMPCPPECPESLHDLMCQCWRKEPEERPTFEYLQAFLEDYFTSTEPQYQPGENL
test-protocol: Src enzyme inhibitory activity (time-resolved fluorometry, biotinylated peptide phosphorylation)
Assay type: biochemical
particulars: biotinylated peptide phosphorylation, read-out: SRC_IC50
Under this convention, Condition met denotes IC50 strictly below 100 nM and Condition not met denotes IC50 at or above 100 nM.

Reference set (8 entries):
Cc1cc(C#N)cc(S(=O)(=O)Nc2cc3[nH]c(C(=O)c4cnn(-c5cnc(Oc6ccccc6F)cc5C)c4N)cc3cc2C)n1 [Example 5-1-481] | Condition not met
COc1cc2cc(C(=O)c3cnn(-c4ccc(Oc5ccccc5F)cc4C)c3N)[nH]c2cc1NS(=O)(=O)N1CCOCC1 [Example 4-12-003] | Condition met
Cc1cc2cc(C(=O)c3cnn(-c4cnc(Oc5ccccc5Cl)cc4C)c3N)[nH]c2cc1NS(=O)(=O)N1CCOCC1 [Example 4-2-110] | Condition not met
Cc1cc(Oc2ccccc2F)ccc1-n1ncc(C(=O)c2cc3cc(N4CCOCC4)c(N4CCCS4(=O)=O)cc3[nH]2)c1N [Example 4-25-006] | Condition met
Cc1cc(C)c(S(=O)(=O)Nc2cc3[nH]c(C(=O)c4cnn(-c5cnc(Oc6ccccc6F)cc5C)c4N)cc3cc2C)c(C)c1 [Example 5-1-461] | Condition not met
Cc1cc(Oc2ccccc2F)ccc1-n1ncc(C(=O)c2cc3cc(F)c(NS(=O)(=O)NC4CCC4)cc3[nH]2)c1N [Example 4-5-006] | Condition not met
Cc1cc(Oc2ccccc2F)ccc1-n1ncc(C(=O)c2cc3cc(F)c(N4C(=O)N[C@@H](C(C)C)C4=O)cc3[nH]2)c1N [Example 5-1-447] | Condition met
Cc1cc(Oc2cccc(F)c2F)ncc1-n1ncc(C(=O)c2cc3cc(F)c(NS(=O)(=O)CCCF)cc3[nH]2)c1N [Example 4-2-022] | Condition not met

(Q) State whether 100 nM exceeds IC50 recorded for Cc1ccnc(S(=O)(=O)Nc2cc3[nH]c(C(=O)c4cnn(-c5cnc(Oc6ccccc6F)cc5C)c4N)cc3cc2C)c1 [Example 5-1-506] .
(A) Condition not met

(Q) State whether 100 nM exceeds IC50 recorded for COc1cncc(S(=O)(=O)Nc2cc3[nH]c(C(=O)c4cnn(-c5cnc(Oc6ccccc6F)cc5C)c4N)cc3cc2C)c1 [Example 5-1-484] .
(A) Condition not met

(Q) State whether 100 nM exceeds IC50 recorded for Cc1cc(Oc2ccccc2F)ccc1-n1ncc(C(=O)c2cc3cc(OCCN4[C@@H]5CC[C@H]4COC5)c(NS(C)(=O)=O)cc3[nH]2)c1N [Example 4-24-039] .
(A) Condition met

(Q) State whether 100 nM exceeds IC50 recorded for Cc1cc(Oc2cccc(F)c2)ncc1-n1ncc(C(=O)c2cc3cc(F)c(NS(C)(=O)=O)cc3[nH]2)c1N [Example 4-2-038] .
(A) Condition not met

(Q) State whether 100 nM exceeds IC50 recorded for Cc1cc(Oc2ccccc2F)ncc1-n1ncc(C(=O)c2cc3cc(OC(F)F)c(N4CCN(S(C)(=O)=O)CC4)cc3[nH]2)c1N [Example 4-23-004] .
(A) Condition met

(Q) State whether 100 nM exceeds IC50 recorded for Cc1cc(Oc2ccccc2F)ncc1-n1ncc(C(=O)c2cc3cc(C4CC4)c(NS(=O)(=O)CCCF)cc3[nH]2)c1N [Example 5-1-428] .
(A) Condition not met

(Q) State whether 100 nM exceeds IC50 recorded for Cc1cc(Oc2c(F)cccc2Cl)ncc1-n1ncc(C(=O)c2cc3cc(F)c(NS(C)(=O)=O)cc3[nH]2)c1N [Example 4-2-035] .
(A) Condition met

(Q) State whether 100 nM exceeds IC50 recorded for Cc1cc2cc(C(=O)c3cnn(-c4cnc(Oc5c(F)cccc5F)cc4C)c3N)[nH]c2cc1N1C(=O)N[C@@H](Cc2ccccc2)C1=O [Example 5-1-452] .
(A) Condition not met

(Q) State whether 100 nM exceeds IC50 recorded for Cc1cc(Oc2ccccc2F)ccc1-n1ncc(C(=O)c2cc3cc(OCC(F)F)c(-n4c(C)cc(=O)[nH]c4=O)cc3[nH]2)c1N [Example 4-23-030] .
(A) Condition met

(Q) State whether 100 nM exceeds IC50 recorded for Cc1cc(Oc2c(F)cccc2F)ncc1-n1ncc(C(=O)c2cc3cc(F)c(NS(=O)(=O)c4cccc(F)c4)cc3[nH]2)c1N [Example 5-1-553] .
(A) Condition not met

* * *

system-name: human Yes1 enzyme (Homo sapiens)
Construct: made in house
test-protocol: Yes1 enzyme inhibitory activity (time-resolved fluorometry, biotinylated peptide phosphorylation)
Type: biochemical
particulars: biotinylated peptide phosphorylation, read-out: YES_IC50
Protocol: 1. Yes1 Enzyme Inhibitory Activity Yes1 inhibitory activity was determined based on activity of inhibiting phosphorylation reaction of a biotinylated peptide (EGPWLEEEEEAYGWMDF) using a human Yes1 enzyme prepared using a baculovirus expression system. The phosphorylated biotinylated peptide was detected by time-resolved fluorometry using an anti-phosphorylated tyrosine antibody conjugated to europium cryptate, and streptavidin conjugated to XL665, an allophycocyanin derivative. […]
measured-metric: IC50 (nM)
// units = nM; emit number, no label

Cc1cc(Oc2ccccc2F)ccc1-n1ncc(C(=O)c2cc3cc(F)c(NS(=O)(=O)NC4CCC4)cc3[nH]2)c1N | 6.8
Cc1cc(Oc2ccccc2F)cc(F)c1-n1ncc(C(=O)c2cc3cc(OCC(F)F)c(N4CCN(S(C)(=O)=O)CC4)cc3[nH]2)c1N | 2.7
Cc1cc(Oc2ccccc2F)cc(F)c1-n1ncc(C(=O)c2cc3cc(OC(F)F)c(N4CCCS4(=O)=O)cc3[nH]2)c1N | 3.9

Turning now to a further record.
(Q) Would you mind telling me what IC50 value was observed for "Cc1cc(Oc2c(F)cccc2F)ncc1-n1ncc(C(=O)c2cc3cc(OCC(F)F)c(NC4CCN(S(C)(=O)=O)CC4)cc3[nH]2)c1N" ?
(A) 3.6

* * *

system-name: human Yes1 enzyme (Homo sapiens, UniProt P07947)
Construct: made in house
test-protocol: Yes1 enzyme inhibitory activity (time-resolved fluorometry, biotinylated peptide phosphorylation)
Assay type: biochemical
particulars: biotinylated peptide phosphorylation, read-out: YES_IC50
measured-metric: IC50 (nM)
// units = nM; emit number, no label

Answered examples (2):
Cc1cc(Oc2c(F)cccc2F)ncc1-n1ncc(C(=O)c2cc3cc(OC(F)F)c(N4CCC(N5CCOCC5)CC4)cc3[nH]2)c1N | 1.9
Cc1cc(Oc2ccccc2F)ccc1-n1ncc(C(=O)c2cc3cc(C4CC4)c(NS(=O)(=O)CCCF)cc3[nH]2)c1N | 2

Turning now to a further record.
(Q) Notebook: pull reported IC50 for human Yes1 enzyme (Homo sapiens, UniProt P07947), entry "Cc1cc2cc(C(=O)c3cnn(-c4cnc(Oc5ccccc5F)cc4C)c3N)[nH]c2cc1NS(=O)(=O)c1ccc2ccccc2c1"
(A) 28
